- Assay target: AgSho1
- Assay method text: SPOT peptide array binding signal intensity (averaged, normalized) (arbitrary units (background-subtracted, floor 0; scale differs between SH3 domains)); higher = stronger binding of the SH3 domain to the peptide
binders and their reported SPOT peptide array binding signal intensity
Experimental endpoint: SPOT peptide array binding signal intensity

{"Binder": "IRMPSNPALPKKLLN", "Experimental value": 852}
{"Binder": "NRLRKRLNLPSEISI", "Experimental value": 26.5}
{"Binder": "VGFRLALKFPSRITG", "Experimental value": 2510}
{"Binder": "LEFRAILFIPKRAPF", "Experimental value": 850}
